target: GDP-bound KRAS wild-type protein (Homo sapiens, UniProt P01116); assay: Binding to KRAS by surface plasmon resonance (SPR), Single Cycle Kinetics; conditions: SPR Single Cycle Kinetics, GDP-bound KRAS wild-type protein, 1:1 binding model; read-out: KRAS KD
Sequence (P01116 whole entry): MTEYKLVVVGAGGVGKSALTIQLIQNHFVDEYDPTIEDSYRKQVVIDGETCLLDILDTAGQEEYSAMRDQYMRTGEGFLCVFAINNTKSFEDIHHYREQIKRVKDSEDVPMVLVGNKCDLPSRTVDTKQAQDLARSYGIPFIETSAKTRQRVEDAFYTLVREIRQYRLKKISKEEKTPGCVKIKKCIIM
*1 amine or outer side, *2 acyl side, *3 side chain or, on linkers, in order; H or OH if unused. Where a SMILES comes first, the peptide text is derived from it. Bridges are numbered along the chain shown (N, C = ends). [ ]: non-standard residue; d: D form. The star is where a group is joined. hPhe(3-Cl-4-CF3) = N[C@@H](CCc1ccc(C(F)(F)F)c(Cl)c1)C(=O)O; NPrPhe(4-CF3) = CCCN[C@@H](Cc1ccc(C(F)(F)F)cc1)C(=O)O; NMeGly(cPent) = CN[C@H](C(=O)O)C1CCCC1; NMeD = CN[C@@H](CC(=O)O)C(=O)O; NMeL = CN[C@@H](CC(C)C)C(=O)O; X12 = N#CCN(CC(=O)[*:2])[*:1]; Morpholide = C1CN(*)CCO1; Ac5c = NC1(C(=O)O)CCCC1; Aze = O=C(O)[C@@H]1CCN1; Sar = CNCC(=O)O

# Molecule, Unit Symbol, Kd
data = [
    ("CCCN1C(=O)[C@@H]2CCN2C(=O)CN(CC#N)C(=O)[C@H]([C@@H](C)CC)NC(=O)[C@H](CC(C)C)N(C)C(=O)C[C@@H](C(=O)N2CCOCC2)N(C)C(=O)[C@H](C2CCCC2)N(C)C(=O)C2(CCCC2)NC(=O)[C@@H]2CCCN2C(=O)[C@H](CCc2ccc(C(F)(F)F)c(Cl)c2)NC(=O)CN(C)C(=O)[C@@H]1Cc1ccc(C(F)(F)F)cc1 [PP0275] ([NMeL]I[X12][Aze][NPrPhe(4-CF3)][Sar][hPhe(3-Cl-4-CF3)]P[Ac5c][NMeGly(cPent)][NMeD]-Morpholide; lactam N-11)", "nM", 0.3),
    ("CCCC[C@H]1C(=O)N[C@@H]([C@@H](C)CC)C(=O)N(C)CC(=O)N(C)[C@H]2C/C=C\\CCN(C2=O)[C@@H](Cc2ccc(C(F)(F)F)cc2)C(=O)N(C)CC(=O)N[C@@H](CCc2ccc(C(F)(F)F)c(OC)c2)C(=O)N2C[C@H](OCC)C[C@H]2C(=O)NC2(CCC2)C(=O)N(C)[C@@H](C2CCCC2)C(=O)N(C)[C@H](C(=O)N(C)CC)CC(=O)N1C", "nM", 0.1),
    ("CCC[C@H]1C(=O)N[C@@H]([C@@H](C)CC)C(=O)N(C)CC(=O)N(C)[C@H]2C/C=C\\CCN(C2=O)[C@@H](Cc2ccc(C)cc2)C(=O)N(C)CC(=O)N[C@@H](CCc2ccc(CC)c(Cl)c2)C(=O)N2C[C@H](OCC)C[C@H]2C(=O)NC2(CC(C)(C)C2)C(=O)N(C)[C@@H](C2CCCC2)C(=O)N(C)[C@H](C(=O)N(C)C)CC(=O)N1C", "nM", 0.62),
]

---

molecular target: GDP-bound KRAS wild-type protein (Homo sapiens); experiment: Binding to KRAS by surface plasmon resonance (SPR), Single Cycle Kinetics; settings: SPR, Single Cycle Kinetics, 1:1 binding model; GDP-bound KRAS wild-type protein; read-out: KRAS KD
Readout Type: log10 Kd (log10 of the value in nM)

# Compound, log10 Kd
measured = [
    ("CCO[C@@H]1C[C@H]2C(=O)NC3(CCC3)C(=O)N(C)[C@@H](C3CCCC3)C(=O)N(C)[C@H](C(=O)N(C)CC)CC(=O)N(C)[C@@H](CC(C)C)C(=O)N[C@@H]([C@@H](C)CC)C(=O)N(C)CC(=O)N(C)[C@H]3C/C=C\\CCN(C3=O)[C@@H](Cc3ccc(C(F)(F)F)cc3)C(=O)N(C)CC(=O)N[C@@H](CCc3cc(F)c(C(F)(F)F)c(F)c3)C(=O)N2C1", -1.09),
    ("CCO[C@@H]1C[C@H]2C(=O)NC3(CCC3)C(=O)N(C)[C@@H](C3CCCC3)C(=O)N(C)[C@H](C(=O)N(C)CCOC)CC(=O)N(C)[C@@H](CC(C)C)C(=O)N[C@@H]([C@@H](C)CC)C(=O)N(C)CC(=O)N(C)[C@H]3C/C=C\\CCN(C3=O)[C@@H](Cc3ccc(C(F)(F)F)cc3)C(=O)N(C)CC(=O)N[C@@H](CCc3ccc4sccc4c3)C(=O)N2C1", -0.26),
    ("CCO[C@@H]1C[C@H]2C(=O)NC3(CCC3)C(=O)N(C)[C@@H](C3CCCC3)C(=O)N(C)[C@H](C(=O)N(C)C)CC(=O)N(C)[C@@H](CC(C)C)C(=O)N[C@@H]([C@@H](C)CC)C(=O)N(C)CC(=O)N(C)[C@H]3C/C=C\\CCN(C3=O)[C@@H](Cc3ccc(C(F)(F)F)cc3)C(=O)N(C)CC(=O)N[C@@H](CCc3ccc4sccc4c3)C(=O)N2C1", -0.48),
    ("CCCC[C@H]1C(=O)N[C@@H]([C@@H](C)CC)C(=O)N(C)CC(=O)N(C)[C@H]2C/C=C\\CCN(C2=O)[C@@H](Cc2ccc(C(F)(F)F)cc2)C(=O)N(C)CC(=O)N[C@@H](CCc2cc(F)c(C(F)(F)F)c(F)c2)C(=O)N2C[C@H](OCC)C[C@H]2C(=O)NC2(CCCC2)C(=O)N(C)[C@@H](C2CCCC2)C(=O)N(C)[C@H](C(=O)N(C)C)CC(=O)N1C", -1.14),
    ("CCC[C@H]1C(=O)N[C@@H]([C@@H](C)CC)C(=O)N(C)CC(=O)N(C)[C@H]2C/C=C\\CCN(C2=O)[C@@H](Cc2ccc(C(F)(F)F)cc2)C(=O)N(C)CC(=O)N[C@@H](CCc2ccc(Cl)c(Cl)c2)C(=O)N2C[C@H](OCC)C[C@H]2C(=O)NC2(CCC2)C(=O)N(C)[C@@H](C(CC)CC)C(=O)N(C)[C@H](C(=O)N(C)C)CC(=O)N1C", -0.41),
    ("CCO[C@@H]1C[C@H]2C(=O)NC3(CCC3)C(=O)N(C)[C@@H](C(CC)CC)C(=O)N(C)[C@H](C(=O)N(C)C)CC(=O)N(C)[C@@H](CC3CC3)C(=O)N[C@@H]([C@@H](C)CC)C(=O)N(C)CC(=O)N(C)[C@H]3C/C=C\\CCN(C3=O)[C@@H](CC3CCCCC3)C(=O)N(C)CC(=O)N[C@@H](CCc3cc(F)c(C(F)(F)F)c(F)c3)C(=O)N2C1", -0.06),
    ("CCO[C@@H]1C[C@H]2C(=O)NC3(CCC3)C(=O)N(C)[C@@H](C3CCCC3)C(=O)N(C)[C@H](C(=O)N(C)C)CC(=O)N(C)[C@@H](CC3CCCC3)C(=O)N[C@@H]([C@@H](C)CC)C(=O)N(C)CC(=O)N(C)[C@H]3C/C=C\\CCN(C3=O)[C@@H](Cc3ccc(F)cc3)C(=O)N(C)CC(=O)N[C@@H](CCc3ccc4sccc4c3)C(=O)N2C1", 0.04),
    ("CCO[C@@H]1C[C@H]2C(=O)NC3(CCC3)C(=O)N(C)[C@@H](C(CC)CC)C(=O)N(C)[C@H](C(=O)N(C)C)CC(=O)N(C)[C@@H](CC(C)C)C(=O)N[C@@H]([C@@H](C)CC)C(=O)N(C)CC(=O)N(C)[C@H]3C/C=C\\CCN(C3=O)[C@@H](Cc3ccc(C(F)(F)F)cc3)C(=O)N(C)CC(=O)N[C@@H](CCc3ccc(Cl)c(Cl)c3)C(=O)N2C1", -0.32),
    ("CCCN(C)C(=O)[C@@H]1CC(=O)N(C)[C@@H](CC2CC2)C(=O)N[C@@H]([C@@H](C)CC)C(=O)N(C)CC(=O)N(C)[C@H]2C/C=C\\CCN(C2=O)[C@@H](Cc2ccc(C(F)(F)F)cc2)C(=O)N(C)CC(=O)N[C@@H](CCc2cc(F)c(C(F)(F)F)c(F)c2)C(=O)N2C[C@H](OCC)C[C@H]2C(=O)NC2(CCC2)C(=O)N(C)[C@@H](C2CCCC2)C(=O)N1C", -1.12),
    ("CCO[C@@H]1C[C@H]2C(=O)NC3(CCC3)C(=O)N(C)[C@@H](C3CCCC3)C(=O)N(C)[C@H](C(=O)N(C)C)CC(=O)N(C)[C@@H](CC3CCCC3)C(=O)N[C@@H]([C@@H](C)CC)C(=O)N(C)CC(=O)N(C)[C@H]3C/C=C\\CCN(C3=O)[C@@H](Cc3ccc(C(F)(F)F)cc3)C(=O)N(C)CC(=O)N[C@@H](CCc3ccc4sccc4c3)C(=O)N2C1", -0.36),
    ("C#CC[C@H]1C(=O)N[C@@H]([C@@H](C)CC)C(=O)N(C)CC(=O)N(C)[C@H]2CC[C@@H](C)CN(C2=O)[C@@H](Cc2ccc(C(F)(F)F)cc2)C(=O)N(C)CC(=O)N[C@@H](CCc2ccc(C(F)(F)F)c(Cl)c2)C(=O)N2CCC[C@H]2C(=O)NC2(CCCC2)C(=O)N(C)[C@@H](C2CCCC2)C(=O)N(C)[C@H](C(=O)N(C)C)CC(=O)N1C", -1.09),
]
